// provenance: PubChem BioAssay (NCI)

System: KM12 colon
Experiment: NCI-60 one-dose screen, 48 h (100 = growth as untreated, 0 = no growth, -100 = all killed)
Conditions: 10 µM unless noted
This is part of a sample that, as a whole, favours compounds with a hit. Of some 83,000 tested, about 20% had one in any assay.
Overview of recorded growth for various compounds

{"COMPOUND": "C[N+]1(C)C2CC[C@@H]1CC(OC(=O)C(O)c1ccccc1)C2 (stereo not given in full)", "EXPERIMENTAL TARGET": "KM12 colon", "VALUE UNITS": "%", "growth": 109}
{"COMPOUND": "COc1ccc(C(=O)/C=C/c2cccc(Nc3ccnc4cc(Cl)ccc34)c2)cc1", "EXPERIMENTAL TARGET": "KM12 colon", "VALUE UNITS": "%", "growth": 53}
{"COMPOUND": "CCOC(=O)/C(=C/CC/C(C)=C/CC/C(C)=C/CCc1ccoc1)CC(=O)N1CCCCC1", "EXPERIMENTAL TARGET": "KM12 colon", "VALUE UNITS": "%", "growth": 49}
{"COMPOUND": "COc1cccc(N2CCN(c3cccc(C)n3)CC2)c1", "EXPERIMENTAL TARGET": "KM12 colon", "VALUE UNITS": "%", "growth": 110}
{"COMPOUND": "CC(C)Cn1cnc2c(NCn3nc(-c4cc(Cl)cc(Cl)c4Cl)n(/N=C/c4ccc(Cl)cc4)c3=S)nc3ccccc3c21", "EXPERIMENTAL TARGET": "KM12 colon", "VALUE UNITS": "%", "growth": 96.6}
{"COMPOUND": "C[C@@H]1CN(c2nc3c(cc2F)c(=O)c(C(=O)O)cn3C(C)(C)C)C[C@H](C)N1", "EXPERIMENTAL TARGET": "KM12 colon", "VALUE UNITS": "%", "growth": 98.5}
{"COMPOUND": "COc1cc(/C=C/C(=O)C(C(=O)/C=C/c2ccc(OC(=O)CCNC34CC5CC(CC(C5)C3)C4)c(OC)c2)C(=O)CCNC23CC4CC(CC(C4)C2)C3)ccc1OC(=O)CCNC12CC3CC(CC(C3)C1)C2 (stereo not given)", "EXPERIMENTAL TARGET": "KM12 colon", "VALUE UNITS": "%", "growth": -5.8}
{"COMPOUND": "COc1cccc(C2=NN(C(C)=O)C(c3cc(OC)c(OC)c(OC)c3)C2)c1 (stereo not given)", "EXPERIMENTAL TARGET": "KM12 colon", "VALUE UNITS": "%", "growth": 35.9}
{"COMPOUND": "CC(C)N(Cc1ccccc1)c1c(Cl)ssc1=O", "EXPERIMENTAL TARGET": "KM12 colon", "VALUE UNITS": "%", "growth": 106}
{"COMPOUND": "CCOc1cc(/C=C/C(=O)CC(=O)/C=C/c2ccc(OC(=O)CNCCN(CC)CC)c(OCC)c2)ccc1OC(=O)CNCCN(CC)CC", "EXPERIMENTAL TARGET": "KM12 colon", "VALUE UNITS": "%", "growth": -60.2}
{"COMPOUND": "C1CCC(C(CC2CCCCN2)C2CCCCC2)CC1 (stereo not given)", "EXPERIMENTAL TARGET": "KM12 colon", "VALUE UNITS": "%", "growth": -54.1}
{"COMPOUND": "O=C1C=CC(=O)N1c1ccccc1N1C(=O)C=CC1=O", "EXPERIMENTAL TARGET": "KM12 colon", "VALUE UNITS": "%", "growth": 117}
{"COMPOUND": "O=c1[nH]cc(Nc2cc(Cl)c3nonc3c2[N+](=O)[O-])c(=O)[nH]1", "EXPERIMENTAL TARGET": "KM12 colon", "VALUE UNITS": "%", "growth": 109}
{"COMPOUND": "CN1CCN(c2nc3scc(-c4ccccc4)c3c(=O)[nH]2)CC1", "EXPERIMENTAL TARGET": "KM12 colon", "VALUE UNITS": "%", "growth": 94.1}
{"COMPOUND": "COc1ccc(C(=O)/C=C/c2ccc(C)cc2)cc1OC", "EXPERIMENTAL TARGET": "KM12 colon", "VALUE UNITS": "%", "growth": 20.1}

* * *

Tested on: SW-620 colon
Experiment: NCI-60 one-dose screen, 48 h
Details: 10 µM unless noted
This is part of a sample that, as a whole, favours compounds with a hit. Of some 83,000 tested, about 20% had one in any assay. Activity calls are given as the source filed them. Rule for the calls: active = growth percent below 10; inactive = the rest.
Outcomes: active, inactive

{"COMPOUND": "COc1cccc(/C=C2\\Cc3ccccc3C2=O)c1", "CATEGORY LABEL": "inactive"}
{"COMPOUND": "COc1cc(/C=C/C(=O)C(C(=O)/C=C/c2ccc(OC(=O)CCNc3nnc(C)s3)c(OC)c2)C(=O)CCNc2nnc(C)s2)ccc1OC(=O)CCNc1nnc(C)s1", "CATEGORY LABEL": "active"}
{"COMPOUND": "O=C(/C=C/c1ccc([N+](=O)[O-])cc1)c1ccc2c3c(cccc13)CC2", "CATEGORY LABEL": "inactive"}
{"COMPOUND": "C[C@]12CC[C@H](O)CC1=CC[C@@H]1[C@@H]2CC[C@]2(C)C(c3cccnc3)=CC[C@@H]12", "CATEGORY LABEL": "inactive"}
{"COMPOUND": "O=C(Nc1cccc(Cl)c1)Nc1cccc(Cl)c1", "CATEGORY LABEL": "inactive"}
{"COMPOUND": "CCN(CC)CCSc1ncnc2c1cnn2-c1ccc(S(N)(=O)=O)cc1", "CATEGORY LABEL": "inactive"}
{"COMPOUND": "CCOC(=O)/C=C1/SC(=Nc2ccc(C#N)cc2)N(Cc2ccco2)C1=O", "CATEGORY LABEL": "inactive"}
{"COMPOUND": "CNc1nc(NC2CCCC2)nc(Sc2ccc(OC)cc2)n1", "CATEGORY LABEL": "inactive"}
{"COMPOUND": "O=[N+]([O-])c1ccc2[nH]cc(-c3c4ccccc4cc4[nH]c5ccc([N+](=O)[O-])cc5c34)c2c1", "CATEGORY LABEL": "inactive"}
{"COMPOUND": "O=C(c1ccccc1)c1ccc(Oc2ccc([N+](=O)[O-])cc2[N+](=O)[O-])cc1", "CATEGORY LABEL": "active"}
{"COMPOUND": "O=C1Nc2ccc(C(=O)O)c(O)c2C1=O", "CATEGORY LABEL": "inactive"}
{"COMPOUND": "O=C1/C=C/[C@@H](O)[C@@H]2C[C@@H](O)C[C@H]2/C=C/CCC[C@H](CO)O1", "CATEGORY LABEL": "inactive"}
{"COMPOUND": "CC1Cc2ccccc2N1C(=O)c1ccc(C(=O)c2ccccc2)cc1 (centres undefined)", "CATEGORY LABEL": "inactive"}
{"COMPOUND": "COc1cccc(CCN2C(=O)CCC3=C2CCC3=O)c1", "CATEGORY LABEL": "inactive"}
{"COMPOUND": "CCCCCCCCCCCCCCCCNC(=O)Nc1ccc2ccccc2c1", "CATEGORY LABEL": "inactive"}
{"COMPOUND": "N#Cc1c(-c2ccccc2)cc(-c2ccccc2)n(CCCCC(=O)O)c1=O", "CATEGORY LABEL": "inactive"}
{"COMPOUND": "COc1cccc(C=Nc2cc(C(C)C)c(O)cc2C)c1O", "CATEGORY LABEL": "inactive"}
{"COMPOUND": "COc1ccc2c(=O)c(OC)c(-c3cc(OC)c(OC)c(OC)c3)oc2c1", "CATEGORY LABEL": "inactive"}
{"COMPOUND": "Cc1ccc(/C=C(/C#N)n2nnc3ncccc32)cc1", "CATEGORY LABEL": "active"}
{"COMPOUND": "COc1cc(/C=N/OC(=O)Nc2ccccc2)cc(OC)c1OC", "CATEGORY LABEL": "inactive"}
{"COMPOUND": "O=C(N/N=C/c1ccc(Cl)cc1Cl)c1ccccc1Nc1cccc(C(F)(F)F)c1", "CATEGORY LABEL": "inactive"}
{"COMPOUND": "CCCCCc1c(C)[nH]c(/C=C2\\N=C(c3ccc[nH]3)C=C2OCc2ccccc2)c1C", "CATEGORY LABEL": "active"}
{"COMPOUND": "O=C(O)c1ccc2cccnc2c1O", "CATEGORY LABEL": "inactive"}
{"COMPOUND": "CO[C@H]1/C=C/O[C@@]2(C)Oc3c(C)c(O)c4c(O)c(c(/C=N/N5C(C)CN(Cc6ccc(C#N)cc6)CC5C)c(O)c4c3C2=O)NC(=O)/C(C)=C\\C=C\\[C@H](C)[C@H](O)[C@@H](C)[C@@H](O)[C@@H](C)[C@H](OC(C)=O)[C@@H]1C (some centres undefined)", "CATEGORY LABEL": "inactive"}
{"COMPOUND": "Oc1c(Cl)cc(Cl)c(Cl)c1Cc1c(O)c(Cl)cc(Cl)c1Cl", "CATEGORY LABEL": "inactive"}
{"COMPOUND": "CCOC(=O)C(Br)=P(c1ccccc1)(c1ccccc1)c1ccccc1", "CATEGORY LABEL": "inactive"}
{"COMPOUND": "CCCCCCC(CC#N)(CCC)CCCC (centres undefined)", "CATEGORY LABEL": "inactive"}
{"COMPOUND": "COc1ccc2c(c1)CC/C(=C\\c1ccc(OCC(=O)Nc3nc4ccccc4s3)cc1)C2=O", "CATEGORY LABEL": "inactive"}
{"COMPOUND": "C#C[C@]1(O)CCC2C3CCc4cc(O)ccc4C3CC[C@@]21C (some centres undefined)", "CATEGORY LABEL": "inactive"}
{"COMPOUND": "COc1cc(/C=C2\\SC(N3CCCCC3)=NC2=O)ccc1OCCCCCCOc1ccc(/C=C2\\SC(N3CCCCC3)=NC2=O)cc1OC", "CATEGORY LABEL": "active"}
{"COMPOUND": "c1ccc2c(-c3nc4ccccc4[nH]3)cccc2c1", "CATEGORY LABEL": "inactive"}
{"COMPOUND": "CCSc1nc(Nc2ccc(S(=O)(=O)Nc3ccon3)cc2)c(C#N)c(-c2cccc(Br)c2)n1", "CATEGORY LABEL": "inactive"}
{"COMPOUND": "Cc1ccccc1NC(=O)N/C(N)=N/c1nc2ccccc2s1", "CATEGORY LABEL": "inactive"}
{"COMPOUND": "COc1cccc(C2=NN(C(C)=O)C(c3cc(OC)c(OC)c(OC)c3)C2)c1 (centres undefined)", "CATEGORY LABEL": "inactive"}
